Target: hTRPV3 (Homo sapiens)
Construct: The commercially available plasmid with the full-length cDNA of hTRPV3 (791 aa) (NM_001258205.2)
Sequence (Q8NET8 1-791 isoform Q8NET8-2): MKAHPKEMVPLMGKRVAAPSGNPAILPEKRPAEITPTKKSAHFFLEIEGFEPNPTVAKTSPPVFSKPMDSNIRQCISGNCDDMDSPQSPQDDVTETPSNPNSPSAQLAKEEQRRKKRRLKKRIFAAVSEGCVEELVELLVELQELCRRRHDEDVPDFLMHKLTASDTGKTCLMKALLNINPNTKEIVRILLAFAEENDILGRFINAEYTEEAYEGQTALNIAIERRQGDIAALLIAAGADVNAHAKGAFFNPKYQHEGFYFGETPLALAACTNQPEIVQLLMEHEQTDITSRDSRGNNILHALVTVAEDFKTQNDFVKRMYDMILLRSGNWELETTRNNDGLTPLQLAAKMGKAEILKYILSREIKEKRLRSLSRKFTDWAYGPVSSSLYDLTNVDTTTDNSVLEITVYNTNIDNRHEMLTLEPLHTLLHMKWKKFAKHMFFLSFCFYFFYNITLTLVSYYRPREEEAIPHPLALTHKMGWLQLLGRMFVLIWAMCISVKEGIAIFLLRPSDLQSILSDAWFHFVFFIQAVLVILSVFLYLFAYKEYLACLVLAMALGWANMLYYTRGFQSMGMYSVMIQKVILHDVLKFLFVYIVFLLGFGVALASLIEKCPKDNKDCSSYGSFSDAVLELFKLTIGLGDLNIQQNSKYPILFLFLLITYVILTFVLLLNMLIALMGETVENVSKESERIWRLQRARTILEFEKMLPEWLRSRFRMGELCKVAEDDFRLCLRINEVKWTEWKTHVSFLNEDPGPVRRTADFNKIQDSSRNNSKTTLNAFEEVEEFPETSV
Test: Whole-cell patch-clamp recording of hTRPV3 current in transfected HEK293T cells (2-APB induced)
Details: current induced by 300 μM 2-APB, compounds tested up to 10 μM, room temperature
Protocol: Various technologies can be utilized to assess TRPV3 activation in accordance with the present disclosure. For example, in some embodiments, compounds are assessed in in vitro patch clamp experiments. […] All patch-clamp recordings were analyzed using the Clampfit software and GraphPad Prism 6.0 software. Specifically, data are analyzed by calculating the degree of current amplitude after the test compound addition compared with the unblocked agonist-induced current amplitude. […]
Below, each entry is listed with its recorded IC50.

Example entries and their recorded answers appear below.
COc1ncnc(OC)c1C(=O)Nc1nc2c(s1)C1(COC1)Oc1cc(C(C)(C)C#N)ccc1-2 [compound 140] :: 1000 to 10000 nM
COc1ncnc(OC)c1C(=O)Nc1nc2c(s1)C1(CCC(c3ccc(C)cc3)CC1)Oc1cc(C(F)(F)F)ccc1-2 (stereo not shown) [compound 36] :: 100 to 1000 nM
COc1ncnc(OC)c1C(=O)Nc1nc2c(s1)C1(CN(CCN(C)C)C1)Oc1cc(C(F)(F)F)ccc1-2 [compound 164] :: 1000 to 10000 nM

API: the following record is the query input.
The compound identified as CCCCOC(=O)N1CC2(C1)Oc1cc(C(F)(F)F)ccc1-c1nc(NC(=O)c3c(OC)ncnc3OC)sc12 [compound 77] registered its IC50 at 100 to 1000 nM

----------
Below, each entry is listed with its recorded pIC50.
target: hTRPV3 (Homo sapiens); construct: The commercially available plasmid with the full-length cDNA of hTRPV3 (791 aa) (NM_001258205.2); experiment: Whole-cell patch-clamp recording of hTRPV3 current in transfected HEK293T cells (2-APB induced); details: current induced by 300 μM 2-APB, compounds tested up to 10 μM, room temperature
pIC50: −log10 of the molar value.

COc1ncnc(OC)c1C(=O)Nc1nc2c(s1)C1(COC(C)(C)OC1)Oc1cc(C(F)(F)F)ccc1-2 :: 6.00 to 7.00
CCOC(=O)CCCC1(C)Oc2cc(C(F)(F)F)ccc2-c2nc(NC(=O)c3c(OC)ncnc3OC)sc21 (stereo not shown) :: 6.00 to 7.00
COc1ncnc(OCCN(C)C)c1C(=O)Nc1nc2c(s1)C1(COC1)Oc1cc(C(F)(F)F)ccc1-2 :: 5.00 to 6.00
CCC1(CC)Oc2cc(C(F)(F)F)ccc2-c2nc(NS(=O)(=O)c3c(OC)ncnc3OC)sc21 :: ≤ 5.00
COc1ncnc(OC)c1C(=O)Nc1nc2c(s1)C1(CN(C(=O)c3ccco3)C1)Oc1cc(C(F)(F)F)ccc1-2 :: 5.00 to 6.00

The compound identified as COc1ncnc(OC)c1C(=O)Nc1nc2c(s1)C(CO)(CO)Oc1cc(C(F)(F)F)ccc1-2 registered its pIC50 at 5.00 to 6.00

The compound identified as C=CCCC1(C)Oc2cc(C(F)(F)F)ccc2-c2nc(NC(=O)c3c(OC)ncnc3OC)sc21 (stereo not shown) registered its pIC50 at > 7.00

----------
Below, each entry is listed with its recorded pIC50.
target: hTRPV3 (Homo sapiens); construct: The commercially available plasmid with the full-length cDNA of hTRPV3 (791 aa) (NM_001258205.2); experiment: Whole-cell patch-clamp recording of hTRPV3 current in transfected HEK293T cells (2-APB induced); details: current induced by 300 μM 2-APB, compounds tested up to 10 μM, room temperature
pIC50: −log10 of the molar value.

Example entries and their recorded answers appear below.
COc1ncnc(OC)c1C(=O)Nc1nc2c(s1)C1(CCC(C)(C)CC1)Oc1cc(C(F)(F)F)ccc1-2 :: 6.00 to 7.00
CCC1(CC)Oc2cc(C(F)(F)F)ccc2-c2nc(NC(=O)c3c(OC)ncnc3OC)sc21 :: > 7.00
COc1ncnc(OC)c1C(=O)Nc1nc2c(s1)C(C)(CCc1ccccc1)Oc1cc(C(F)(F)F)ccc1-2 (stereo not shown) :: 6.00 to 7.00
COc1ncnc(OC)c1C(=O)Nc1nc2c(s1)C1(Oc3cc(C(F)(F)F)ccc3-2)C2CC3CC(C2)CC1C3 (stereo not shown) :: 6.00 to 7.00
COc1ncnc(OC)c1C(=O)Nc1nc2c(s1)C1(CCN(C(=O)OC(C)(C)C)C1)Oc1cc(C(F)(F)F)ccc1-2 (stereo not shown) :: 6.00 to 7.00
COc1ccc2c(c1)-c1nc(NC(=O)c3c(OC)ncnc3OC)sc1CO2 :: ≤ 5.00

API: the following record is the query input.
Item COC(=O)N1CC2(C1)Oc1cc(C(F)(F)F)ccc1-c1nc(NC(=O)c3c(OC)ncnc3OC)sc12 ; assay system hTRPV3 (Homo sapiens); pIC50 reported as 6.00 to 7.00

----------
Below, each entry is listed with its recorded pIC50.
target: hTRPV3 (Homo sapiens); construct: The commercially available plasmid with the full-length cDNA of hTRPV3 (791 aa) (NM_001258205.2); assay: Whole-cell patch-clamp recording of hTRPV3 current in transfected HEK293T cells (2-APB induced); conditions: current induced by 300 μM 2-APB, compounds tested up to 10 μM, room temperature
pIC50: −log10 of the molar value.

Example entries and their recorded answers appear below.
CCOC(=O)[C@H]1CC[C@@]2(CC1)Oc1cc(C(C)C)ccc1-c1nc(NC(=O)c3c(OC)ncnc3OC)sc12 :: 5.00 to 6.00
COc1ncnc(OC)c1C(=O)Nc1nc2c(s1)C1(CCC(C)CC1)Oc1cc(C(F)(F)F)ccc1-2 (stereo not drawn) :: 6.00 to 7.00
CCC1(CC)Oc2cc(C(F)(F)F)ccc2-c2nc(NC(=O)c3c(Cl)ncnc3OC)sc21 :: 6.00 to 7.00
COCC1(COC)Oc2cc(C(F)(F)F)ccc2-c2nc(NC(=O)c3c(OC)ncnc3OC)sc21 :: 6.00 to 7.00
COc1ncnc(OC)c1C(=O)Nc1nc2c(s1)C1(CCN(CC(C)C)CC1)Oc1cc(C(F)(F)F)ccc1-2 :: > 7.00

The compound identified as CCC1(CC)Oc2cc(C(F)F)ccc2-c2nc(NC(=O)c3c(OC)ncnc3OC)sc21 registered its pIC50 at 6.00 to 7.00

The compound identified as COc1ncnc(OC)c1C(=O)Nc1nc2c(s1)CCc1cc(C(F)(F)F)ccc1-2 registered its pIC50 at ≤ 5.00

The compound identified as COc1ncnc(OC)c1C(=O)Nc1nc2c(s1)C1(CN(CCO)C1)Oc1cc(C(F)(F)F)ccc1-2 registered its pIC50 at 6.00 to 7.00

The compound identified as COc1ncnc(OC)c1C(=O)NC1=NC2c3ccc(C(F)(F)F)cc3OC3(CCC3)C2S1 (stereo not drawn) registered its pIC50 at 6.00 to 7.00

The compound identified as COc1ncnc(OC)c1C(=O)Nc1nc2c(s1)C1(CCC(C(=O)O)CC1)Oc1cc(C(F)(F)F)ccc1-2 (stereo not drawn) registered its pIC50 at ≤ 5.00

The compound identified as CCOC(=O)c1ccc2c(c1)OC(CC)(CC)c1sc(NC(=O)c3c(OC)ncnc3OC)nc1-2 registered its pIC50 at 5.00 to 6.00

The compound identified as COc1ncnc(OC)c1C(=O)Nc1nc2c(s1)C(C)(CCCC(=O)O)Oc1cc(C(F)(F)F)ccc1-2 (stereo not drawn) registered its pIC50 at 5.00 to 6.00

The compound identified as CCC1(CC)Oc2cc(C(F)(F)F)ccc2-c2nc(NC(=O)c3c(OC)ncnc3OCCOC)sc21 registered its pIC50 at 6.00 to 7.00

The compound identified as COc1ncnc(OC)c1C(=O)Nc1nc2c(cnc3cc(C(F)(F)F)ccc32)s1 registered its pIC50 at 5.00 to 6.00

The compound identified as CCC1(CC)Oc2cc(C(F)(F)F)ccc2-c2nc(NC(=O)c3cc(OC)nnc3OC)sc21 registered its pIC50 at ≤ 5.00

The compound identified as COc1ncnc(OC)c1C(=O)Nc1nc2c(s1)COc1cc(Br)ccc1-2 registered its pIC50 at ≤ 5.00

The compound identified as COc1ncnc(OC)c1C(=O)Nc1nc2c(s1)C1(CN(C(=O)c3ccccc3)C1)Oc1cc(C(F)(F)F)ccc1-2 registered its pIC50 at 6.00 to 7.00

The compound identified as COc1ncnc(OC)c1C(=O)Nc1nc2c(s1)C1(COC1)Oc1cc(C(C)C)ccc1-2 registered its pIC50 at > 7.00

The compound identified as COc1ncnc(OC)c1C(=O)Nc1nc2c(s1)C(CF)(CF)Oc1cc(C(F)(F)F)ccc1-2 registered its pIC50 at > 7.00

Origin of measurements: patent US20260217697A1
